# TARGET: pancreatic lipase (Sus scrofa, UniProt P00591)
# Sequence (P00591 whole entry): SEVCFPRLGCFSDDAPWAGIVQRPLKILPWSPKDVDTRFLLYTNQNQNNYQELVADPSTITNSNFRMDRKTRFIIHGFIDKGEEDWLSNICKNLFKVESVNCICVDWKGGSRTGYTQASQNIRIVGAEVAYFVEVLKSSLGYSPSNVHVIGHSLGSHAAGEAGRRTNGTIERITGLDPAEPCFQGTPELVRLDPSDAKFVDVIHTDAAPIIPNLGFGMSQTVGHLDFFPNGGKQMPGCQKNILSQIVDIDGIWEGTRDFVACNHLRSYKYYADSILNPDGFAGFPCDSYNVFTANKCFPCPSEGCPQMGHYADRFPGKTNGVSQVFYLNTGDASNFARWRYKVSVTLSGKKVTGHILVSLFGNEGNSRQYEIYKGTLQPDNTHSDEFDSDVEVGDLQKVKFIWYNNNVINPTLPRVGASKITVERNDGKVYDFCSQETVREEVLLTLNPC
ENDPOINT: pIC50
Numbers only, as −log10 of the molar value.

COc1cc(CCC(=O)CC(=O)CCc2ccc(O)c(OC)c2)ccc1O :: 4.01

API: the following record is the query input.
Problem: Which pIC50 value is on record for O=C(CCc1ccc(O)cc1)CC(=O)CCc1ccc(O)cc1 ?
Solution: 4.37

----------
# TARGET: pancreatic lipase (Homo sapiens, UniProt P16233)
# Sequence (P16233 17-465): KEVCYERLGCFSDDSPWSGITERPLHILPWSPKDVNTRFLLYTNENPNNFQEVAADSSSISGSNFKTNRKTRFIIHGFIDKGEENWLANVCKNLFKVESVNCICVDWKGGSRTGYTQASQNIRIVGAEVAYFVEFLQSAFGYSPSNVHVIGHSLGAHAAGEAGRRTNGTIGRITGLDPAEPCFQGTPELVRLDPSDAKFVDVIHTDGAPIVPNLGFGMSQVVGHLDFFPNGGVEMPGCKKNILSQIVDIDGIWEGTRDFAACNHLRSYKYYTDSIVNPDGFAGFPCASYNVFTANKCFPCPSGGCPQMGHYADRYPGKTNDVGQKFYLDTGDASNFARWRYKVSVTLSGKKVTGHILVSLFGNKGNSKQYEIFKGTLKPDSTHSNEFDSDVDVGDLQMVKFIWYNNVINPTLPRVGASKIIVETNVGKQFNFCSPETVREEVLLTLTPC
# PROCEDURE SUMMARY: microscale thermophoresis
# Format: binding
ENDPOINT: pKd
Give bare numbers, as −log10 of the molar value.

Examples from the recorded data:
O=C(CCc1ccc(O)cc1)CC(=O)CCc1ccc(O)cc1 [C4] :: 5.54
COc1cc(/C=C/C(=O)CC(=O)/C=C/c2ccc(O)c(OC)c2)ccc1O [A6, curcumin, reference compound] :: 4.63

API: the following record is the query input.
Problem: Form field: pKd recorded for COc1cc(CCC(=O)CC(=O)CCc2ccc(O)c(OC)c2)ccc1O [C6] with pancreatic lipase (Homo sapiens, UniProt P16233) (enter value)
Solution: 4.74
